All figures here come from patent EP4624457A1.

Tested on: A2780 ovarian carcinoma cells
Assay text: Cell viability / proliferation assay (CellTiter Glo luminescence, 72 h)
Format: cell-based
Stated conditions: Homo sapiens; A2780, HT29 and U87-MG together; read-out: IC50 values, range over the three cancer cell lines tested
Observed property: IC50

[in] Could you tell me which IC50 is on file for "C=CC1=C[C@@H]2C[C@@H](O)[C@@H](O)/C(C)=C/C/C(C)=C/CCC3=NCCC[C@]32CC1" ?
[out] 10 to 45 nM

* * *

System tested: human α7 nAChR subtype (Homo sapiens)
Construct: expressed in transfected cells; host or cells: Xenopus laevis oocytes injected with mRNA
Sequence (P36544 23-502): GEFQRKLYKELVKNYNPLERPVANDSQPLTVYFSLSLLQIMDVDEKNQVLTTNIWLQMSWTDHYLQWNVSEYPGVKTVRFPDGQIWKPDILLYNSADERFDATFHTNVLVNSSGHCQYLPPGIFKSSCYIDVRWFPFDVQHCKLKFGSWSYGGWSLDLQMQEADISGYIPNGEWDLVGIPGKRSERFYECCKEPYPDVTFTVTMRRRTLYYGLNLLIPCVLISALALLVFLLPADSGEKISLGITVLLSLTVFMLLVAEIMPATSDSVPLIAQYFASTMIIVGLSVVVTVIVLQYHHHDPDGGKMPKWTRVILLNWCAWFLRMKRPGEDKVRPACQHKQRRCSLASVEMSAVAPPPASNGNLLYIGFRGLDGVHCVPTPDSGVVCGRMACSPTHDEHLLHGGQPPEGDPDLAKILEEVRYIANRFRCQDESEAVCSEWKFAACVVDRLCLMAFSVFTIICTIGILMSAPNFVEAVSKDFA
Assay text: Two-electrode voltage clamp electrophysiology on Xenopus laevis oocytes expressing the α7 nAChR
Format: cell-based
Stated conditions: antagonistic activity, TEVC; value (95% CI); 100 µM ACh, 45 s preincubation; Figures 5 and 7; read-out: nAChR subtype (nM; 95% CI) α7 (human)
Observed property: IC50
Reply with a number, then the unit it belongs to.

[in] Can you look up the measured IC50 of "C=CC1=C[C@@H]2[C@@H]3O[C@]4(CC[C@H](O4)[C@@H](C)C[C@@H](O)C3=O)C[C@H](O)C3=NCC[C@@]32CC1" for me?
[out] 21200 nM
